# Measured on: low-density lipoprotein receptor related protein-1 (LRP-1) on IMG microglial cells (UniProt Q91ZX7 20-4545, limits assumed)
# Sequence (Q91ZX7 20-4545 limits assumed): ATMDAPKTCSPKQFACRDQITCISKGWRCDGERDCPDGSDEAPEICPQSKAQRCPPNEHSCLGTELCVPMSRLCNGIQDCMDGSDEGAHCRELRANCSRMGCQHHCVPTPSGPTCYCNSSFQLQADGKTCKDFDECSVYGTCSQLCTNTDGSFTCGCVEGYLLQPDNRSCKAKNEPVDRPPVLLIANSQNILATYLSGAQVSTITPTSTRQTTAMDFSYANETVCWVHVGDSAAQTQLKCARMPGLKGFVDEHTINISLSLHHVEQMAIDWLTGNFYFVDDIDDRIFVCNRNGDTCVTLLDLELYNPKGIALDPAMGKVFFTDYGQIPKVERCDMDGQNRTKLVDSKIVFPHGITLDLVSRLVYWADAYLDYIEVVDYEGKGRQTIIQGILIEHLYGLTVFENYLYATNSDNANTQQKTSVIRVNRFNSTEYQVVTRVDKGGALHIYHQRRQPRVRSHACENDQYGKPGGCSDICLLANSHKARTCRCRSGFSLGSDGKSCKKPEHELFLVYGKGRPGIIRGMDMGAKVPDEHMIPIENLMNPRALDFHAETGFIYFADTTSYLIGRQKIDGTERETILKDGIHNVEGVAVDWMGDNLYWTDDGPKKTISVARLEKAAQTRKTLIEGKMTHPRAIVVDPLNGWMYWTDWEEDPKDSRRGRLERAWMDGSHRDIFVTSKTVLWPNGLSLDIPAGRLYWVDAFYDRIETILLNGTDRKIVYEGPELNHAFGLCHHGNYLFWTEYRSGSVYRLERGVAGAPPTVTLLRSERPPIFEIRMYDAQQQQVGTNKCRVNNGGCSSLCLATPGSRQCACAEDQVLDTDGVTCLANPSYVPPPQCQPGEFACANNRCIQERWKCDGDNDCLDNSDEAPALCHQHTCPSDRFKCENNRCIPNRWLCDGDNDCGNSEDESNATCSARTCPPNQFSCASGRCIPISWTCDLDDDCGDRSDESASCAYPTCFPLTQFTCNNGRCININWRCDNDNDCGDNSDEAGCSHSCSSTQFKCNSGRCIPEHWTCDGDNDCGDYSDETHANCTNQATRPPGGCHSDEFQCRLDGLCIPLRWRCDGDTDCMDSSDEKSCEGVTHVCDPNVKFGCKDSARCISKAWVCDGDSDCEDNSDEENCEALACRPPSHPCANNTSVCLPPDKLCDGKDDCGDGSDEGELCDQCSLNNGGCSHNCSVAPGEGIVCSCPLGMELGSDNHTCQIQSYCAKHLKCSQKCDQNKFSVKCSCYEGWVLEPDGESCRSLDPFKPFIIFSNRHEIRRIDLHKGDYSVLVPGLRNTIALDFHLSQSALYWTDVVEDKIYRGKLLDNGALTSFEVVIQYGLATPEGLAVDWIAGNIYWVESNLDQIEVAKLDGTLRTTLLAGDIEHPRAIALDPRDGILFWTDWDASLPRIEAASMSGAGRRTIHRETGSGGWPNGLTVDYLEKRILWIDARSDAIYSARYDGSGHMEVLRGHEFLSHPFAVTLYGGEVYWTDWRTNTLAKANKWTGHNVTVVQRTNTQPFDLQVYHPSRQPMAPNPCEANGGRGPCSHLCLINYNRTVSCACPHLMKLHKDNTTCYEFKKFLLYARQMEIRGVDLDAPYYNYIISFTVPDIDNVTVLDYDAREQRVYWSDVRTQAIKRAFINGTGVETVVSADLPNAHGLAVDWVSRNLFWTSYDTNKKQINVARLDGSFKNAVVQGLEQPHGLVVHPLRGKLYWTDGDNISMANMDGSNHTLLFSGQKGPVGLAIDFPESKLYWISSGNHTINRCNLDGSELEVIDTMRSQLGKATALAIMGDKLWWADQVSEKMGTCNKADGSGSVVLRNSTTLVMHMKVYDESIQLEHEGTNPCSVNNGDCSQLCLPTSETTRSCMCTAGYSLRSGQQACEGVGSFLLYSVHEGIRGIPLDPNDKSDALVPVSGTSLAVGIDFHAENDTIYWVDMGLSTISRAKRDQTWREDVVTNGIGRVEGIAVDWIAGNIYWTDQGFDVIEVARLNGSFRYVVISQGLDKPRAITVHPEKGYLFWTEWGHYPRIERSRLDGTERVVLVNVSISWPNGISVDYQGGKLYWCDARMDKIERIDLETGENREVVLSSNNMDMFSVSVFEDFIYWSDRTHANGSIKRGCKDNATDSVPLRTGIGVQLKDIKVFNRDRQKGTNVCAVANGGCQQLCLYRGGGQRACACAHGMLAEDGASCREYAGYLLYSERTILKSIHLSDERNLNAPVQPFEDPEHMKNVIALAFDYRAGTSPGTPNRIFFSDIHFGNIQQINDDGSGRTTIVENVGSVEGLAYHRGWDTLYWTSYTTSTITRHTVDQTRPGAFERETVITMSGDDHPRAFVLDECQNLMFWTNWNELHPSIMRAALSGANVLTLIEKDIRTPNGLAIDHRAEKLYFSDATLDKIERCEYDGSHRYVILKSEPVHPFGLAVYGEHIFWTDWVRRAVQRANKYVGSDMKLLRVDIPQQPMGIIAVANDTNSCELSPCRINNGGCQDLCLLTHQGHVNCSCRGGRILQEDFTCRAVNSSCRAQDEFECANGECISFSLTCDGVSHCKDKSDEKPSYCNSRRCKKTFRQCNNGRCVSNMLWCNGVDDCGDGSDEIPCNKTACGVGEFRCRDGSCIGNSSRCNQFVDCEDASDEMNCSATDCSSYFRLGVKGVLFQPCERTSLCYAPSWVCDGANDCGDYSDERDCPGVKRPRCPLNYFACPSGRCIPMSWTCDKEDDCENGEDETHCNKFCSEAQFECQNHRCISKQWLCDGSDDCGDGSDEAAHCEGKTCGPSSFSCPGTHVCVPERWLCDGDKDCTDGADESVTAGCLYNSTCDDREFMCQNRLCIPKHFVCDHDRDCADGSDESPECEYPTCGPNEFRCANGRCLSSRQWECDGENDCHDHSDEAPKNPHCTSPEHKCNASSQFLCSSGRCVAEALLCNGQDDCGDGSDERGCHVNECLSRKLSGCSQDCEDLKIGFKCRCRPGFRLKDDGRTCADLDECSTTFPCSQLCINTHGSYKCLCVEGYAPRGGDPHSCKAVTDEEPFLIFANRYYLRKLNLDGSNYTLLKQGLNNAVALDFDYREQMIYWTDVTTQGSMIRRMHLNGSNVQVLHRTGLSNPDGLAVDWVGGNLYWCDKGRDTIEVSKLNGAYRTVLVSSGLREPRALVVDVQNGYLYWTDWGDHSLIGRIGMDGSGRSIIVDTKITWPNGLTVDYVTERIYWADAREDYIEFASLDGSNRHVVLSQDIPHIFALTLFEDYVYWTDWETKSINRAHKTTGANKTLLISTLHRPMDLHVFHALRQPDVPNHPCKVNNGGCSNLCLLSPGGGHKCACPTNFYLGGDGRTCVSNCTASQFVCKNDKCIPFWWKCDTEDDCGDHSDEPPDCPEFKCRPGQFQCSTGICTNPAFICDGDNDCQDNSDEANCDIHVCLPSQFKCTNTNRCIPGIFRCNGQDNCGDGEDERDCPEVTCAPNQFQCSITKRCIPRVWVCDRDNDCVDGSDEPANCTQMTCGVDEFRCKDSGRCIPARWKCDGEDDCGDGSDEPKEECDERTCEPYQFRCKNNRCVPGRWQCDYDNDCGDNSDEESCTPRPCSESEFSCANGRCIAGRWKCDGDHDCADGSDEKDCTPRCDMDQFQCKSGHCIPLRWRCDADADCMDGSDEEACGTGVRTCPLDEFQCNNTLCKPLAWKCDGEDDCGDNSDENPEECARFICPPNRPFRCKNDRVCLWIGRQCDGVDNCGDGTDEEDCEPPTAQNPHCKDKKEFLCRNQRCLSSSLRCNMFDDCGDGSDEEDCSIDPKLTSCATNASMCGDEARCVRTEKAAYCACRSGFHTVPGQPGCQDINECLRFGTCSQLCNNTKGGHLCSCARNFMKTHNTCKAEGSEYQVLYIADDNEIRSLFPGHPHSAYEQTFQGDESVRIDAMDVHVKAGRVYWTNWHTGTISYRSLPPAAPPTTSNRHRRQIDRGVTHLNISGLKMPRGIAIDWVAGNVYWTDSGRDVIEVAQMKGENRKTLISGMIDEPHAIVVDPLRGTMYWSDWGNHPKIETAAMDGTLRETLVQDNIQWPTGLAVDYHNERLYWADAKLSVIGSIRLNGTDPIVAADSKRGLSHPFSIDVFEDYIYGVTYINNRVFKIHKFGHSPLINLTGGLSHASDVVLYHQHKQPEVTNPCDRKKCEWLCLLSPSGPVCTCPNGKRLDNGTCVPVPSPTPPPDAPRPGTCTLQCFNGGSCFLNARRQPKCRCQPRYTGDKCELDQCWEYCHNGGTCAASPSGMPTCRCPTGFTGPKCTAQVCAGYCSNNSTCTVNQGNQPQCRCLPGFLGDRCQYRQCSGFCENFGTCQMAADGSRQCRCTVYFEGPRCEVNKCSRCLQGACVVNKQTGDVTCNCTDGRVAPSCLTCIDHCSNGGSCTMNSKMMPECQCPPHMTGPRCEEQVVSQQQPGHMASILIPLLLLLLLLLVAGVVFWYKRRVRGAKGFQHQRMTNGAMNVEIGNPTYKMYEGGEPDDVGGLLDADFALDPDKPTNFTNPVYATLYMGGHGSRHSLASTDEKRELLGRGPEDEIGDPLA
# Measurement notes: cell-based or functional assay
Positions of bridges follow the written chain, without caps; N, C: chain ends. Non-standard residues stand in square brackets, D forms with d. No end group written: not given here. Nle = CCCC[C@H](N)C(=O)O; Dap = NC[C@H](N)C(=O)O; Nal = naphthylalanine
EC50, TNFα (IMG microglial cells, LPS, ELISA) values by entry
Value type: EC50, TNFα (IMG microglial cells, LPS, ELISA) (µg/mL)

Binder	Endpoint result
RRRFVFLXD (not fully specified; Nle (norleucine) at position 8; cyclic: head-to-tail linker between the amino group of the N-terminal Arg and the side-chain carboxylic acid of the C-terminal Asp, ring closing length 12 C-C bonds) [SERPIN peptide derivative A15, HN-RRRFVFL[Nle]D (cyclic)]	36.8
RRRAT[Nal]L[Nle]D (not fully specified (bridges); printed as HN- RRRAT[Nal]L[NIe]D (cyclic); also: cyclic, ring not given here) [SERPIN peptide derivative A3-14, HN-RRRAT[Nal]L[Nle]D (cyclic)]	6
Ac-RRR[Dap]FT[Nal]L[Nle]D [SERPIN peptide derivative A2-1, Ac-RRR[Dap]FT[Nal]L[Nle]D (cyclic)]	13
RRRFVFLD (not fully specified; cyclic (HN- at the N-terminus (so in the source))) [SERPIN peptide derivative A2-4, HN-RRRFVFLD (cyclic)]	12.5
Ac-RRRCPFVFL[Nle]C (disulfide 4-11 (inferred)) [SERPIN peptide derivative SA7, Ac-RRRCPFVFL[Nle]C (cyclic)]	124
RRRFVFLSD (not fully specified; D-Ser at position 8; cyclic (HN- at the N-terminus (so in the source))) [SERPIN peptide derivative A2-5, HN-RRRFVFL[dS]D (cyclic)]	2.39
RRRFVFLXD (not fully specified; D-Dap at position 8; cyclic (HN- at the N-terminus (so in the source))) [SERPIN peptide derivative A3-10, HN-RRRFVFL[dDap]D (cyclic)]	34.6
RRRFVFLAD (not fully specified; cyclic (HN- at the N-terminus (so in the source))) [SERPIN peptide derivative A2-3, HN-RRRFVFLAD (cyclic)]	11.8
